method: AUC (0 to t) in Sprague-Dawley rat at 2 mg/kg, iv
Type: ADME, organism-based
Parameters: dose 2 mg/kg
assay_setup: in vivo
readout_name: AUC(0-t) (ng·h/mL)
// units = ng·h/mL; emit number, no label

Need AUC(0-t) of COc1ccccc1N1CCN(CCCCn2cc(CCCC(=O)O)c3ccccc32)CC1 , thanks. 12.3

###

method: Bioavailability in Sprague-Dawley rat at 20 mg/kg, ip
Type: ADME, organism-based
assay_setup: in vivo
readout_name: bioavailability (%)
// units = %; emit number, no label

Item under review: COc1ccccc1N1CCN(CCCCn2cc(CCCC(=O)O)c3ccccc32)CC1 . Reported bioavailability? 8.83

###

method: AUC (0 to t) in Sprague-Dawley rat at 20 mg/kg, ip
Format: ADME, organism-based
Design: dose 20 mg/kg
assay_setup: in vivo
readout_name: AUC(0-t) (ng·h/mL)
Field format: number, assumed ng·h/mL, no unit text.

Fill in the blank: the reported AUC(0-t) of COc1ccccc1N1CCN(CCCCn2cc(CCCC(=O)O)c3ccccc32)CC1 is ____. 17.5

###

method: MRT in Sprague-Dawley rat at 20 mg/kg, ip
Type: ADME, organism-based
assay_setup: in vivo
readout_name: MRT (h)
Give the number; h is assumed, so skip it.

Can you share its MRT? I mean this compound: COc1ccccc1N1CCN(CCCCn2cc(CCCC(=O)O)c3ccccc32)CC1 1.49

###

method: MRT in Sprague-Dawley rat at 2 mg/kg, iv
Type: ADME, organism-based
assay_setup: in vivo
readout_name: MRT (h)
Give just the number in h; leave the unit off.

Report MRT for COc1ccccc1N1CCN(CCCCn2cc(CCCC(=O)O)c3ccccc32)CC1 please. 1.94

###

method: Half life in Sprague-Dawley rat at 20 mg/kg, ip
Format: ADME, organism-based
assay_setup: in vivo
readout_name: half-life (min)
Enter your answer as a number in min; do not include the unit.

Give its half-life value. Item: COc1ccccc1N1CCN(CCCCn2cc(CCCC(=O)O)c3ccccc32)CC1 345

###

method: Tmax in Sprague-Dawley rat at 2 mg/kg, iv
Format: ADME, organism-based
assay_setup: in vivo
readout_name: Tmax (min)
Express the result in min but write the number alone.

Entry COc1ccccc1N1CCN(CCCCn2cc(CCCC(=O)O)c3ccccc32)CC1 : reported Tmax = ? 3

###

method: Half life in Sprague-Dawley rat at 2 mg/kg, iv
Type: ADME, organism-based
assay_setup: in vivo
readout_name: half-life (h)
Give the value, in units of h, as a plain number.

// lookup half-life for COc1ccccc1N1CCN(CCCCn2cc(CCCC(=O)O)c3ccccc32)CC1 11

###

system: Alpha-1A adrenergic receptor (Homo sapiens)
Sequence (P35348 whole entry): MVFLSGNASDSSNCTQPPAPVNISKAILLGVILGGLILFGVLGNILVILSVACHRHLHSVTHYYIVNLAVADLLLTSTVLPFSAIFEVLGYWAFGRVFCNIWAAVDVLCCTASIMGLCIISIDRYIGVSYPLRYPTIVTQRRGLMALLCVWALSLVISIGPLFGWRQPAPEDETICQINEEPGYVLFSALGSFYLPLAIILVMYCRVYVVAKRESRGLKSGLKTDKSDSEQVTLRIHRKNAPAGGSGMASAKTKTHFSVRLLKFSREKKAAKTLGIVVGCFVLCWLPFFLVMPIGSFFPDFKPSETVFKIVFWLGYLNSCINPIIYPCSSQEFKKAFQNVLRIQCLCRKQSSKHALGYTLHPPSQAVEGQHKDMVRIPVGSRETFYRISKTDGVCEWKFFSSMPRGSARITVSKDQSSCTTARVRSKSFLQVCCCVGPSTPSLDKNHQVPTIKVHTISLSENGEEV
method: Antagonist activity at human alpha1A receptor transfected in HEK293 cells co-transfected with Galpha16 assessed as reduction in intracellular calcium release incubated for 40 mins by Fluo-4AM dye based fluorescence assay
Exercise: for every item that follows, state its recorded IC50.
Just the number in nM, nothing appended.

Which IC50 reading was recorded for the compound COc1ccccc1N1CCN(CCCCn2cc(CCCC(=O)O)c3ccccc32)CC1 ? 20.8

What does the record list as IC50 for O=C(O)CCCc1cn(CCCCCN2CCN(c3ccccc3Cl)CC2)c2ccccc12 ? 32.9
